Target: recombinant human TRKA (G595R) (Homo sapiens, UniProt P04629, G595R)
Sequence (P04629 33-796 G595R): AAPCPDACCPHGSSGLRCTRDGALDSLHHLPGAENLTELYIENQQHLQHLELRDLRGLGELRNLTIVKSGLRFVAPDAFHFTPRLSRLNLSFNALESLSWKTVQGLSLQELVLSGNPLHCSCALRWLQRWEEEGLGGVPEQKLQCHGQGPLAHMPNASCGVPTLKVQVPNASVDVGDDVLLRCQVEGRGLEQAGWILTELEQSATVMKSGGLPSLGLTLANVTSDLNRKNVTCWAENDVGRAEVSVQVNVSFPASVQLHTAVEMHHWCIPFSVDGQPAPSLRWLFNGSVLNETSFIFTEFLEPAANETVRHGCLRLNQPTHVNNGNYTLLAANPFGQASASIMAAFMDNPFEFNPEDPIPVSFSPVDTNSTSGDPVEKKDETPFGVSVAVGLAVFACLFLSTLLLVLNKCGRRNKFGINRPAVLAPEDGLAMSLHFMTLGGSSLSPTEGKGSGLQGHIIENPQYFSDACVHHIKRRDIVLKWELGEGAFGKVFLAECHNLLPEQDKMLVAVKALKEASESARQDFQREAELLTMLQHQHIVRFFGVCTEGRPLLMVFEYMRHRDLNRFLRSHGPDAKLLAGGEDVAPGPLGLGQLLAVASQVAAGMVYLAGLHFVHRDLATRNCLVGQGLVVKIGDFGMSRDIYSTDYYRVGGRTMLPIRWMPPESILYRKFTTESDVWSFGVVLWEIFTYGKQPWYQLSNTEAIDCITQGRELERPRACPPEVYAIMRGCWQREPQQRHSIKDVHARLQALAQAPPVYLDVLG
Experiment: In vitro activity test on mutant TRKA (G595R) (HTRF KinEASE TK)
Conditions: 4.5 μM ATP, 30 min
Reported IC50 values follow for various compounds

For orientation, consider the following solved cases.
{"compound": "O=C(O)[C@H]1CCN(c2ncc(-c3ncnc4ccc(N5C[C@@H](F)C[C@@H]5c5cc(F)ccc5F)nc34)cn2)C1", "tested on": "recombinant human TRKA (G595R) (Homo sapiens, UniProt P04629, G595R)", "observed": "< 1 nM"}
{"compound": "OC1CCC(Nc2ccnc3ccc(N4CCC[C@@H]4c4cc(F)ccc4F)nc23)C1 (stereo partly shown)", "tested on": "recombinant human TRKA (G595R) (Homo sapiens, UniProt P04629, G595R)", "observed": "< 50 nM"}
{"compound": "CN1CCC(n2cc(-c3c(Cl)cnc4ccc(N5C[C@@H](F)C[C@@H]5c5cc(F)ccc5F)nc34)cn2)CC1", "tested on": "recombinant human TRKA (G595R) (Homo sapiens, UniProt P04629, G595R)", "observed": "< 10 nM"}
{"compound": "CN(C)S(=O)(=O)n1cc(-c2c(Cl)cnc3ccc(N4C[C@@H](F)C[C@@H]4c4cc(F)ccc4F)nc23)cn1", "tested on": "recombinant human TRKA (G595R) (Homo sapiens, UniProt P04629, G595R)", "observed": "< 10 nM"}
{"compound": "O=c1n(-c2ccnc3ccc(N4C[C@@H](F)C[C@@H]4c4cc(F)ccc4F)nc23)ccn1C1CCNCC1", "tested on": "recombinant human TRKA (G595R) (Homo sapiens, UniProt P04629, G595R)", "observed": "< 1 nM"}
{"compound": "O[C@H]1CCN(c2ccc(-c3ncnc4ccc(N5C[C@@H](F)C[C@@H]5c5cc(F)ccc5F)nc34)cn2)C1", "tested on": "recombinant human TRKA (G595R) (Homo sapiens, UniProt P04629, G595R)", "observed": "< 1 nM"}

Turning now to a further compound:
Sure, the documented IC50 for Fc1ccc(F)c([C@H]2CCCN2c2ccc3ncc(Cl)c(-c4cnn(C5CCNCC5)c4)c3n2)c1 is < 1 nM

###

Experiment: Pharmacokinetics experiment in mice
Format: in vivo, ICR mice
Conditions: ICR, plasma, po; mouse, 5 mg/kg
Reported half-life values follow for various compounds
Your answer is read as min, so omit the unit and give the number.

{"compound": "Fc1ccc(F)c([C@H]2C[C@H](F)CN2c2ccc3ncc(Cl)c(-c4cnn(C5CCNCC5)c4)c3n2)c1 [Example 16]", "half-life, min": 140}

Sure, the documented half-life for Fc1ccc(F)c([C@H]2C[C@H](F)CN2c2ccc3ncc(F)c(-c4cnn(C5CCNCC5)c4)c3n2)c1 [Example 20] is 169

###

Target: recombinant human TRKA (G667C) (Homo sapiens, UniProt P04629, G667C)
Sequence (P04629 33-796 G667C): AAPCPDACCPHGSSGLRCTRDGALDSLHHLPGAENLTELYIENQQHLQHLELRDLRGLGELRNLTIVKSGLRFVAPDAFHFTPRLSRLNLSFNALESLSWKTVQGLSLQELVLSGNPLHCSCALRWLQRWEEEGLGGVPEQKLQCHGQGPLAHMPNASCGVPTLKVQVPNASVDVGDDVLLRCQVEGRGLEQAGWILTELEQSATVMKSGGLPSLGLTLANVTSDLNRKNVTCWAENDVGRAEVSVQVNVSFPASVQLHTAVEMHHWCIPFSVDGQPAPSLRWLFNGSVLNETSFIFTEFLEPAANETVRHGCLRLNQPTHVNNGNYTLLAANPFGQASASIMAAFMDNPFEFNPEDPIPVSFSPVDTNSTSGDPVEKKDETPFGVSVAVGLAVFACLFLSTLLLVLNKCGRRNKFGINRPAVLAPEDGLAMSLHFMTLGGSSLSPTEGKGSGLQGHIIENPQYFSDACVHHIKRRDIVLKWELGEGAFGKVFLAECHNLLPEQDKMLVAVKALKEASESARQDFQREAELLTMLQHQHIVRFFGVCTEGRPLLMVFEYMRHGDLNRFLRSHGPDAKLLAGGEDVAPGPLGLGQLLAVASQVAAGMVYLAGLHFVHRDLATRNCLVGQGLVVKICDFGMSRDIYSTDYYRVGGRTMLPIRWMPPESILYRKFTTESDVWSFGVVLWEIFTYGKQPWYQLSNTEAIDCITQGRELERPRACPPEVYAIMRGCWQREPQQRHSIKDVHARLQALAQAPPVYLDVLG
Assay: In vitro activity test on mutant TRKA (G667C) (HTRF KinEASE TK)
Conditions: 5.5 μM ATP, 30 min
pIC50: −log10 of the molar value.
reported metric: pIC50

{"compound": "[2H]c1nc(-c2cnn(C3CCNCC3)c2)c2nc(N3C[C@@H](F)C[C@@H]3c3cc(F)ccc3F)ccc2n1", "pIC50": "> 9.00"}

Turning now to a further compound:
Item Fc1ccc(F)c([C@H]2C[C@H](F)CN2c2ccc3ncc(F)c(-c4cnn(C5CNC5)c4)c3n2)c1 was tested on recombinant human TRKA (G667C) (Homo sapiens, UniProt P04629, G667C); the reported pIC50 is > 9.00

###

Reported AUC(0-t) values follow for various compounds
Experiment: Pharmacokinetics experiment in mice
Format: in vivo, ICR mice
Details: ICR, plasma, po; mouse, 5 mg/kg, p.o.; read-out: AUC0-24 hr
Your answer is read as ng·h/mL, so omit the unit and give the number.

{"compound": "Fc1ccc(F)c([C@H]2C[C@H](F)CN2c2ccc3ncc(Cl)c(-c4cnn(C5CCNCC5)c4)c3n2)c1 [Example 16]", "observed": 3230}

Turning now to a further compound:
Sure, the documented AUC(0-t) for Fc1ccc(F)c([C@H]2C[C@H](F)CN2c2ccc3ncc(F)c(-c4cnn(C5CCNCC5)c4)c3n2)c1 [Example 20] is 2700

###

Molecular target: Recombinant human TRKB (Homo sapiens)
Sequence (Q16620 32-822): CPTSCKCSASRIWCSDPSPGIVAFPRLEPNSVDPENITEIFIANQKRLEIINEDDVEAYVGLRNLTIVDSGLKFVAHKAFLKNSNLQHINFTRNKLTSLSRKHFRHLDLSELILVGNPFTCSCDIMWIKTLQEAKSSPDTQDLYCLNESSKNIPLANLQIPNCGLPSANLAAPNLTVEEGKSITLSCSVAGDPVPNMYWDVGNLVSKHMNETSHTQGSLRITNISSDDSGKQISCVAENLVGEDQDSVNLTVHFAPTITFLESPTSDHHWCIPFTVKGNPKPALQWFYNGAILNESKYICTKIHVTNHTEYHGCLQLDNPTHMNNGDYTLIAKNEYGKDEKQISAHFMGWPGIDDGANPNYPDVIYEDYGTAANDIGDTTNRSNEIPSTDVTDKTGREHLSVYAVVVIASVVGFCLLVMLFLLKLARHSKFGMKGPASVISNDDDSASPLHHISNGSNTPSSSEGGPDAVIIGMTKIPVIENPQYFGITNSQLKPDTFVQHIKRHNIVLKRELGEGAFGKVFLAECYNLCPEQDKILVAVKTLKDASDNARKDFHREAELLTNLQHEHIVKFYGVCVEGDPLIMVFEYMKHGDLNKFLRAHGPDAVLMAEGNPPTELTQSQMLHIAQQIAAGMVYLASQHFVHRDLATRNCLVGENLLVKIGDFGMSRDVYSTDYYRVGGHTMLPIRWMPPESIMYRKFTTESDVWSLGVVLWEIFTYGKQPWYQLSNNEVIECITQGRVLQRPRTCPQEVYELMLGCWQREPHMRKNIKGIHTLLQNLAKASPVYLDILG
Test: In vitro activity test on TRKB kinase (HTRF KinEASE TK)
Settings: 4.77 μM ATP, 50 min
pIC50: −log10 of the molar value.
reported metric: pIC50

For orientation, consider the following solved cases.
{"molecule": "CC(C)N1CCC(n2cc(-c3ccnc4ccc(N5C[C@@H](F)C[C@@H]5c5cc(F)ccc5F)nc34)cn2)CC1 [Example 14]", "pIC50": "> 8.00"}
{"molecule": "Fc1ccc(F)c([C@H]2C[C@H](F)CN2c2ncc3ncnc(-c4cnn(C5CCNCC5)c4)c3n2)c1 [Example 76]", "pIC50": "> 8.00"}
{"molecule": "CN(C)c1ccnc2ccc(N3CCC[C@@H]3c3cc(F)ccc3F)nc12 [Example 4]", "pIC50": "> 8.00"}
{"molecule": "Fc1ccc(F)c([C@H]2C[C@H](F)CN2c2ccc3ncc(Cl)c(-c4noc(C5CCNCC5)n4)c3n2)c1 [Example 51]", "pIC50": "> 9.00"}
{"molecule": "OCCNc1ccnc2ccc(N3CCC[C@@H]3c3cc(F)ccc3F)nc12 [Example 6]", "pIC50": "> 6.30"}

Sure, the documented pIC50 for NC(=O)c1ccnc2ccc(N3CCC[C@@H]3c3cc(F)ccc3F)nc12 [Example 10] is > 9.00

Sure, the documented pIC50 for Fc1ccc(F)c([C@H]2C[C@H](F)CN2c2ccc3ncc(F)c(-c4cnn(C5CNC5)c4)c3n2)c1 [Example 29] is > 9.00

Sure, the documented pIC50 for NC(=O)CN1CCC(n2cc(-c3c(F)cnc4ccc(N5C[C@@H](F)C[C@@H]5c5cc(F)ccc5F)nc34)cn2)CC1 [Example 74] is > 9.00

Sure, the documented pIC50 for CN(C)S(=O)(=O)n1cc(-c2c(Cl)cnc3ccc(N4C[C@@H](F)C[C@@H]4c4cc(F)ccc4F)nc23)cn1 [Example 31] is > 8.00

Sure, the documented pIC50 for CC1(O)CC(n2cc(-c3c(Cl)cnc4ccc(N5C[C@@H](F)C[C@@H]5c5cc(F)ccc5F)nc34)cn2)C1 (some centres unmarked) [Example 39] is > 9.00

Sure, the documented pIC50 for Fc1ccc(F)c([C@H]2C[C@H](F)CN2c2ccc3ncnc(-c4cnc(C5CCNCC5)nc4)c3n2)c1 [Example 91] is > 9.00

Sure, the documented pIC50 for O[C@@H]1CN=C(Nc2ccnc3ccc(N4C[C@@H](F)C[C@@H]4c4cc(F)ccc4F)nc23)OC1 [Example 98] is > 9.00

Sure, the documented pIC50 for O[C@H]1CCN(c2nc(-c3ncnc4ccc(N5C[C@@H](F)C[C@@H]5c5cc(F)ccc5F)nc34)no2)C1 [Example 68] is > 8.00

###

Experiment: Pharmacokinetics experiment in mice
Format: in vivo, ICR mice
Conditions: ICR, plasma, po; mouse, 5 mg/kg
reported metric: Cmax (ng/mL)
Your answer is read as ng/mL, so omit the unit and give the number.

{"structure string": "Fc1ccc(F)c([C@H]2C[C@H](F)CN2c2ccc3ncc(Cl)c(-c4cnn(C5CCNCC5)c4)c3n2)c1", "reported metric": "Cmax", "observed": 714}

Turning now to a further compound:
Sure, the documented Cmax for Fc1ccc(F)c([C@H]2C[C@H](F)CN2c2ccc3ncc(F)c(-c4cnn(C5CCNCC5)c4)c3n2)c1 is 448

###

Reported IC50 values follow for various molecules
Target: recombinant human TRKA (G595R) (Homo sapiens, UniProt P04629, G595R)
Assay: In vitro activity test on mutant TRKA (G595R) (HTRF KinEASE TK)
Conditions: 4.5 μM ATP, 30 min

Sure, the documented IC50 for Fc1ccc(F)c([C@H]2C[C@H](F)CN2c2ccc3ncc(Cl)c(-c4cnn(C5CCNCC5)c4)c3n2)c1 is < 10 nM

Sure, the documented IC50 for COC1(C)CC(n2cc(-c3c(Cl)cnc4ccc(N5C[C@@H](F)C[C@@H]5c5cc(F)ccc5F)nc34)cn2)C1 (some centres unmarked) is < 50 nM

Sure, the documented IC50 for O=C(Nc1ccnc2ccc(N3C[C@@H](F)C[C@@H]3c3cc(F)ccc3F)nc12)N1CC[C@H](O)C1 is < 1 nM

Sure, the documented IC50 for CN1CC(n2cc(-c3c(Cl)cnc4ccc(N5C[C@@H](F)C[C@@H]5c5cc(F)ccc5F)nc34)cn2)C1 is < 1 nM

Sure, the documented IC50 for NC(=O)CN1CCC(n2cc(-c3c(F)cnc4ccc(N5C[C@@H](F)C[C@@H]5c5cc(F)ccc5F)nc34)cn2)CC1 is < 10 nM
